Test system: mPer2Luc MEF
Experiment: PER2::LUC luminescence relative to vehicle control (fold of vehicle); higher = higher PER2::LUC reporter signal
Conditions: time after treatment: 30-hour; concentration: 3.33μM
REPORTED PROPERTY: PER2::LUC luminescence

{"MOLECULE": "CCCCN(CCCC)C(=O)CN1C[C@H](c2ccc3c(c2)OCO3)[C@@H](C(=O)O)[C@@H]1c1ccc(OC)cc1", "REPORTED PROPERTY": "PER2::LUC luminescence", "RECORDED RESULT": 1.47}
{"MOLECULE": "COc1ccc(CCN2CCC(Nc3nc4ccccc4n3Cc3ccc(F)cc3)CC2)cc1", "REPORTED PROPERTY": "PER2::LUC luminescence", "RECORDED RESULT": 0.67}
{"MOLECULE": "O=c1sn(-c2cccc3ccccc23)c(=O)n1Cc1ccccc1", "REPORTED PROPERTY": "PER2::LUC luminescence", "RECORDED RESULT": 0.886}
{"MOLECULE": "OCc1ccc(-c2ccc(-c3ccc(CO)s3)o2)s1", "REPORTED PROPERTY": "PER2::LUC luminescence", "RECORDED RESULT": 1.68}
{"MOLECULE": "CC1=C2C[C@H]3[C@@H](CC=C4C[C@@H](O)CC[C@@]43C)[C@@H]2CC[C@]12O[C@@H]1C[C@H](C)CN[C@H]1[C@H]2C", "REPORTED PROPERTY": "PER2::LUC luminescence", "RECORDED RESULT": 0.766}
{"MOLECULE": "O=C(Nc1cccc(Cl)c1)c1ccccn1", "REPORTED PROPERTY": "PER2::LUC luminescence", "RECORDED RESULT": 1.57}
{"MOLECULE": "CC(C)c1cnn2c(NCc3ccccc3)cc(NCCCCCCN)nc12", "REPORTED PROPERTY": "PER2::LUC luminescence", "RECORDED RESULT": 0.934}
{"MOLECULE": "Cc1cc2sc(NC(=O)Cc3ccccc3)nc2cc1Cl", "REPORTED PROPERTY": "PER2::LUC luminescence", "RECORDED RESULT": 1.75}
{"MOLECULE": "CCc1cncnc1N1CCN(Cc2nc3ccc(C(F)(F)F)cc3[nH]2)CC1", "REPORTED PROPERTY": "PER2::LUC luminescence", "RECORDED RESULT": 1.01}
{"MOLECULE": "C[C@H](NC(=O)/C(C#N)=C/c1cccc(Br)n1)c1ccccc1", "REPORTED PROPERTY": "PER2::LUC luminescence", "RECORDED RESULT": 0.891}
{"MOLECULE": "COc1ccc(-c2nc3cc(F)ccc3s2)cc1OC", "REPORTED PROPERTY": "PER2::LUC luminescence", "RECORDED RESULT": 1.67}
{"MOLECULE": "Cn1cc(/C=C/C(=O)c2cccc(F)c2)cc1/C=C/C(=O)NO", "REPORTED PROPERTY": "PER2::LUC luminescence", "RECORDED RESULT": 0.843}
{"MOLECULE": "Nc1nccc(Oc2ccc(NC(=O)c3c[nH]cc(-c4ccc(F)cc4)c3=O)cc2F)c1Cl", "REPORTED PROPERTY": "PER2::LUC luminescence", "RECORDED RESULT": 0.929}
{"MOLECULE": "CCOC(=O)c1ccc(N(C)c2csc(-c3ccccc3)n2)cc1", "REPORTED PROPERTY": "PER2::LUC luminescence", "RECORDED RESULT": 1}
{"MOLECULE": "COc1cc(NS(C)(=O)=O)ccc1Nc1c2ccccc2nc2ccccc12", "REPORTED PROPERTY": "PER2::LUC luminescence", "RECORDED RESULT": 0.379}
{"MOLECULE": "CCc1nc(-c2cccc(C)c2)c(-c2ccnc(NC(=O)c3ccccc3)c2)s1", "REPORTED PROPERTY": "PER2::LUC luminescence", "RECORDED RESULT": 0.924}
{"MOLECULE": "COc1cc(NC(=O)c2ccc(-c3ccc(Cl)cc3)o2)cc(OC)c1", "REPORTED PROPERTY": "PER2::LUC luminescence", "RECORDED RESULT": 0.95}
{"MOLECULE": "Nc1nc(N)c2nc(-c3cccc(O)c3)cnc2n1", "REPORTED PROPERTY": "PER2::LUC luminescence", "RECORDED RESULT": 0.803}
{"MOLECULE": "Cc1ccc(NC(=O)Nc2cc(C(F)(F)F)ccc2F)cc1Nc1ccc2c(c1)NC(=O)/C2=C\\c1ccc[nH]1", "REPORTED PROPERTY": "PER2::LUC luminescence", "RECORDED RESULT": 1.2}
{"MOLECULE": "CN(C)C/C=C/C(=O)Nc1cc2c(Nc3ccc(F)c(Cl)c3)ncnc2cc1O[C@H]1CCOC1 [BIBW2992 DiMaleate]", "REPORTED PROPERTY": "PER2::LUC luminescence", "RECORDED RESULT": 0.442}
{"MOLECULE": "C[C@@H](O[C@H]1OCCN(Cc2nn(P(=O)(O)O)c(=O)[nH]2)[C@H]1c1ccc(F)cc1)c1cc(C(F)(F)F)cc(C(F)(F)F)c1 [Fosaprepitant dimeglumine]", "REPORTED PROPERTY": "PER2::LUC luminescence", "RECORDED RESULT": 0.891}
{"MOLECULE": "O=C(Nc1ccc(OC(F)(F)F)cc1)c1sccc1NCc1ccnc2ccccc12", "REPORTED PROPERTY": "PER2::LUC luminescence", "RECORDED RESULT": 1.57}

* * *

Tested on: mPer2Luc MEF
Test: PER2::LUC luminescence relative to vehicle control (fold of vehicle); higher = higher PER2::LUC reporter signal
Settings: time after treatment: 30-hour; concentration: 3.33μM
REPORTED PROPERTY: PER2::LUC luminescence

{"COMPOUND": "CC[C@@H]1C(=O)N(C)c2cnc(Nc3ccc(C(=O)N[C@H]4CC[C@H](N5CCN(CC6CC6)CC5)CC4)cc3OC)nc2N1C(C)C", "RECORDED RESULT": 0.326}
{"COMPOUND": "O=c1c(-c2ccc(O)cc2)coc2cc(O)ccc12", "RECORDED RESULT": 1.11}
{"COMPOUND": "CCN1CCN(Cc2ccc(NC(=O)Nc3ccc(Oc4cc(NC)ncn4)cc3)cc2C(F)(F)F)CC1", "RECORDED RESULT": 0.951}
{"COMPOUND": "O=C(NC1CC1)c1cc(-c2cccs2)on1 [N-cyclopropyl-5-(thiophen-2-yl)-1,2-oxazole-3-carboxamide]", "RECORDED RESULT": 1.79}

* * *

Entries annotated with measured PER2::LUC luminescence
Test system: mPer2Luc MEF
Assay: PER2::LUC luminescence relative to vehicle control (fold of vehicle); higher = higher PER2::LUC reporter signal
Conditions: time after treatment: 30-hour; concentration: 0.37μM
Counter-ions that a name gives are not always drawn.
REPORTED PROPERTY: PER2::LUC luminescence

{"COMPOUND": "O=C(c1ccc(OCCN2CCCCC2)cc1)c1c(-c2ccc(O)cc2)sc2cc(O)ccc12 [Raloxifene HCl]", "REPORTED PROPERTY": "PER2::LUC luminescence", "RECORDED RESULT": 0.996}
{"COMPOUND": "Cc1ccc2nc(NCCN)c3ncc(C)n3c2c1", "REPORTED PROPERTY": "PER2::LUC luminescence", "RECORDED RESULT": 0.784}
{"COMPOUND": "CN1CCN(c2nc3ccccc3nc2Cl)CC1", "REPORTED PROPERTY": "PER2::LUC luminescence", "RECORDED RESULT": 1.05}
{"COMPOUND": "O=C(NC1CC1)c1cc(-c2cccs2)on1 [N-cyclopropyl-5-(thiophen-2-yl)-1,2-oxazole-3-carboxamide]", "REPORTED PROPERTY": "PER2::LUC luminescence", "RECORDED RESULT": 1.44}
{"COMPOUND": "COc1cc(CCc2cc(NC(=O)c3ccc(N4CC(C)NC(C)C4)cc3)n[nH]2)cc(OC)c1 (configuration not stated)", "REPORTED PROPERTY": "PER2::LUC luminescence", "RECORDED RESULT": 0.73}
{"COMPOUND": "O=C(Nc1ccc(OC(F)(F)F)cc1)c1sccc1NCc1ccnc2ccccc12", "REPORTED PROPERTY": "PER2::LUC luminescence", "RECORDED RESULT": 1.11}
{"COMPOUND": "COc1ccccc1-c1cc(Nc2cccc(CS(N)(=O)=O)c2)ncn1", "REPORTED PROPERTY": "PER2::LUC luminescence", "RECORDED RESULT": 0.933}
{"COMPOUND": "NCC(=O)N1C[C@H](NC(=O)c2ccccc2)C[C@H]1C(=O)O [GAP-134 (Hydrochloride)]", "REPORTED PROPERTY": "PER2::LUC luminescence", "RECORDED RESULT": 1.04}
{"COMPOUND": "CC(C)c1onc(-c2c(Cl)cccc2Cl)c1COc1ccc(/C=C/c2cccc(C(=O)O)c2)c(Cl)c1", "REPORTED PROPERTY": "PER2::LUC luminescence", "RECORDED RESULT": 1.1}
{"COMPOUND": "O=C(O)c1ccc2c(c1)nc(Nc1cccc(Cl)c1)c1ccncc12", "REPORTED PROPERTY": "PER2::LUC luminescence", "RECORDED RESULT": 1.05}
{"COMPOUND": "O=C(Cc1ccc(-c2ccc(OCCN3CCOCC3)cc2)cn1)NCc1ccccc1", "REPORTED PROPERTY": "PER2::LUC luminescence", "RECORDED RESULT": 0.627}
{"COMPOUND": "COc1ccc(C[C@H]2NC[C@H](O)[C@H]2OC(C)=O)cc1", "REPORTED PROPERTY": "PER2::LUC luminescence", "RECORDED RESULT": 0.05}
{"COMPOUND": "CCOc1cc(C(=O)N2CCC(N3CCN(C)CC3)CC2)ccc1Nc1ncc2c(n1)N(C1CCCC1)c1ccccc1C(=O)N2C", "REPORTED PROPERTY": "PER2::LUC luminescence", "RECORDED RESULT": 0.664}
{"COMPOUND": "CCCCN(CCCC)C(=O)CN1C[C@H](c2ccc3c(c2)OCO3)[C@@H](C(=O)O)[C@@H]1c1ccc(OC)cc1", "REPORTED PROPERTY": "PER2::LUC luminescence", "RECORDED RESULT": 1.16}
{"COMPOUND": "O=C1c2ccccc2C(=O)c2oc(-c3ccccc3)nc21", "REPORTED PROPERTY": "PER2::LUC luminescence", "RECORDED RESULT": 1.2}
{"COMPOUND": "COc1cc(-c2nc3ccccc3s2)ccc1O", "REPORTED PROPERTY": "PER2::LUC luminescence", "RECORDED RESULT": 1.16}
{"COMPOUND": "C/C(=C\\C(=O)Nc1ccccc1C(=O)O)c1ccc2ccccc2c1", "REPORTED PROPERTY": "PER2::LUC luminescence", "RECORDED RESULT": 0.891}
{"COMPOUND": "CC(C)c1cnn2c(NCc3ccccc3)cc(NCCCCCCN)nc12", "REPORTED PROPERTY": "PER2::LUC luminescence", "RECORDED RESULT": 0.943}
{"COMPOUND": "NS(=O)(=O)c1ccc(NC(=O)Nc2ccc(F)cc2)cc1", "REPORTED PROPERTY": "PER2::LUC luminescence", "RECORDED RESULT": 1.06}
{"COMPOUND": "CN1CCN(c2ccc3nc(-c4c(N)c5c(F)cccc5[nH]c4=O)[nH]c3c2)CC1", "REPORTED PROPERTY": "PER2::LUC luminescence", "RECORDED RESULT": 0.895}
{"COMPOUND": "C[C@@H](O[C@H]1OCCN(Cc2nn(P(=O)(O)O)c(=O)[nH]2)[C@H]1c1ccc(F)cc1)c1cc(C(F)(F)F)cc(C(F)(F)F)c1 [Fosaprepitant dimeglumine]", "REPORTED PROPERTY": "PER2::LUC luminescence", "RECORDED RESULT": 0.951}
{"COMPOUND": "O=C(c1ccc(F)c(F)c1Nc1ccc(I)cc1F)N1CC(O)([C@@H]2CCCCN2)C1", "REPORTED PROPERTY": "PER2::LUC luminescence", "RECORDED RESULT": 0.437}
{"COMPOUND": "CC1=C2C[C@H]3[C@@H](CC=C4C[C@@H](O)CC[C@@]43C)[C@@H]2CC[C@]12O[C@@H]1C[C@H](C)CN[C@H]1[C@H]2C", "REPORTED PROPERTY": "PER2::LUC luminescence", "RECORDED RESULT": 0.999}
{"COMPOUND": "Nc1ncnc2c1C(=O)N(c1ccc([C@H]3CC[C@H](CC(=O)O)CC3)cc1)CCO2", "REPORTED PROPERTY": "PER2::LUC luminescence", "RECORDED RESULT": 0.966}
{"COMPOUND": "COc1cc(NC(=O)c2ccc(-c3ccc(Cl)cc3)o2)cc(OC)c1", "REPORTED PROPERTY": "PER2::LUC luminescence", "RECORDED RESULT": 0.878}
{"COMPOUND": "COc1ccc(CCN2CCC(Nc3nc4ccccc4n3Cc3ccc(F)cc3)CC2)cc1", "REPORTED PROPERTY": "PER2::LUC luminescence", "RECORDED RESULT": 0.79}
{"COMPOUND": "CC(C)NC[C@@H](C(=O)N1CCN(c2ncnc3c2[C@H](C)C[C@H]3O)CC1)c1ccc(Cl)cc1", "REPORTED PROPERTY": "PER2::LUC luminescence", "RECORDED RESULT": 0.776}

Measured values drawn from the supplement of paper PMC9334596 for this set.
